# target-or-system: TR (Leishmania infantum, UniProt A4HSF7)
# Construct: made in house
# Sequence (A4HSF7 1-491): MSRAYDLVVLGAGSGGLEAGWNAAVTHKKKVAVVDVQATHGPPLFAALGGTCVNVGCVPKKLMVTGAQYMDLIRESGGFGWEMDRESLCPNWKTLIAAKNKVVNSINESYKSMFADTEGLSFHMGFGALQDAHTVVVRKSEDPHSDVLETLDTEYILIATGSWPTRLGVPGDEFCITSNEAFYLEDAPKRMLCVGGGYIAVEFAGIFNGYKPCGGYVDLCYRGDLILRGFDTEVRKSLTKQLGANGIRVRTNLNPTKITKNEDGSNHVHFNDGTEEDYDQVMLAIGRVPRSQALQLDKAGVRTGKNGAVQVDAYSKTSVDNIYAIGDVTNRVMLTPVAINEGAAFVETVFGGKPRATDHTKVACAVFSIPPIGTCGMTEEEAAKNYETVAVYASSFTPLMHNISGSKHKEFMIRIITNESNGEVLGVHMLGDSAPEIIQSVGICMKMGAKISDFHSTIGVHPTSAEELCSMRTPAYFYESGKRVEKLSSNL
# protocol-summary: Binding assay by SPR
# condition-context: Kd from kslow/kon ratio, kslow/kon
measured-endpoint: pKd
Would you please state pKd, meaning minus log10 of the concentration in mol/L, as a bare number?

The reported TR (Leishmania infantum, UniProt A4HSF7) pKd of CCN(CC)CCOC(=O)c1ccc(NCCC(=O)c2ccc([N+](=O)[O-])cc2)cc1 [Compound 3] is 4.64

====

# target-or-system: L. infantum TR (Leishmania infantum, UniProt A4HSF7)
# Construct: made in house
# Sequence (A4HSF7 entry or part of it): as the sequence (A4HSF7 1-491) above
# protocol-summary: Luminescence-based (NADPH-Glo) TR enzymatic assay
# Format: biochemical
# condition-context: Fig 5; read-out: IC50 (TR inhibition potency)
measured-endpoint: IC50 (µM)
Just the number please, in µM, no unit attached.

Recorded IC50, per entry:
| compound | measured-endpoint | assay-result |
| --- | --- | --- |
| CN(C)C(=O)c1ccc(NCCC(=O)c2cc3ccccc3o2)cc1 [Compound 2] | IC50 | 13.3 |
| CCN(CC)CCOC(=O)c1ccc(NCCC(=O)c2ccc([N+](=O)[O-])cc2)cc1 [Compound 3] | IC50 | 7.51 |

Recorded IC50 for O=C(N/N=C/c1ccc([N+](=O)[O-])s1)C1CC12CCC2 (stereo not drawn) [Compound 1] on L. infantum TR (Leishmania infantum, UniProt A4HSF7) was 1.76

====

Items are presented alongside their recorded pIC50.
# target-or-system: L. infantum TR (Leishmania infantum)
# Construct: made in house
# protocol-summary: Luminescence-based (NADPH-Glo) TR enzymatic assay
# Format: biochemical
# condition-context: n=3; read-out: TR assay IC50
Kindly note that pIC50 refers to -log10 of the concentration in mol/L and answer with the value alone.

| structure-smiles-string | pIC50 |
| --- | --- |
| CN(C)C(=O)c1ccc(NCCC(=O)c2cc3ccccc3o2)cc1 | 4.88 |

Attention now shifts to the item below.
Just so you know, measured pIC50 for CCN(CC)CCOC(=O)c1ccc(NCCC(=O)c2ccc([N+](=O)[O-])cc2)cc1 came out at 5.12

====

# target-or-system: L. infantum TR (Leishmania infantum, UniProt A4HSF7)
# Construct: made in house
# protocol-summary: DTNB absorbance-based TR assay
# Assay type: biochemical
# condition-context: read-out: DTNB IC50
measured-endpoint: pIC50
Kindly note that pIC50 refers to -log10 of the concentration in mol/L and answer with the value alone.

The recorded pIC50 for CCN(CC)CCOC(=O)c1ccc(NCCC(=O)c2ccc([N+](=O)[O-])cc2)cc1 [Compound 3] is 5.40

====

# target-or-system: human glutathione reductase (hGR) (Homo sapiens)
# Construct: purchased Sigma-Aldrich
# Sequence (P00390 44-522): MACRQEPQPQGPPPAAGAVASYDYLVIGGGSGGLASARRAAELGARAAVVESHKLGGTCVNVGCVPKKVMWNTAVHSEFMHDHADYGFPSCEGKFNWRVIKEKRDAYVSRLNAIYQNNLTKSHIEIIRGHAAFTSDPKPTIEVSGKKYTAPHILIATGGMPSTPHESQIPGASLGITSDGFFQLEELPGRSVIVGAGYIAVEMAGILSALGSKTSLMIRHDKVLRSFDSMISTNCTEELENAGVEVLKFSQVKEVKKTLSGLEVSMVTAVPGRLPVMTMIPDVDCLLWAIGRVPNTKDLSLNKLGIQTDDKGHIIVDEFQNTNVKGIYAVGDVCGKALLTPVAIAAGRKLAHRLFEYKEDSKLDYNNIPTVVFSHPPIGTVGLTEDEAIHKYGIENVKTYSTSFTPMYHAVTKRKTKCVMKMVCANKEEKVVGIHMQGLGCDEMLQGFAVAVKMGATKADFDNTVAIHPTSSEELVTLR
# protocol-summary: hGR assay (NADPH-Glo)
# Type: biochemical
# condition-context: n=3
measured-endpoint: pIC50
Schema: pIC50 number; meaning minus log10 of the concentration expressed in molar units.

Test item CN(C)C(=O)c1ccc(NCCC(=O)c2cc3ccccc3o2)cc1 [Compound 2] ; human glutathione reductase (hGR) (Homo sapiens); reported pIC50 was 4.86

====

# target-or-system: L. infantum TR (Leishmania infantum, UniProt A4HSF7)
# Construct: made in house
# protocol-summary: Luminescence-based (NADPH-Glo) TR enzymatic assay
# Format: biochemical
# condition-context: dose-response, Fig 3D; read-out: potency, luminescent assay
# Protocol: L. infantum TR was cloned and purified as previously described.[9, 28] […] After 60 min of incubation at room temperature, an equal volume of NADPH-Glo reagent was added and the luminescent signal was acquired by an EnVision plate reader (PerkinElmer, Waltham, MA, U.S.A.). […] The absorbance signal (412 nm) was acquired 15 minutes post incubation at room temperature using the plate reader (Safire2, Tecan, Switzerland). […]
measured-endpoint: pIC50
pIC50 is a log-scale quantity: -log10 of the concentration expressed in molar.

Input CC(=O)OC[C@H]1O[C@@H]([S-])[C@H](OC(C)=O)[C@@H](OC(C)=O)[C@@H]1OC(C)=O.CCP(CC)CC.[Au+] [Auranofin, reference compound] . Output pIC50: 5.18
